Tested on: MCF-7 (breast cancer cell)
assay: MTT antiproliferative assay (cell growth %, GI50), MCF-7
Format: cell-based
measurement.setup: Homo sapiens, MCF7; 4 mg/ml, 48 hours, MTT
Classify as follows. Reported activity at 4000 µg/mL greater than or equal to 70%: True. Reported activity at 4000 µg/mL below: False.

| compound | group |
| --- | --- |
| COc1ccc2c(Nc3ccc(/C(C)=N/OCCCCN4CCOCC4)cc3)c3ccoc3nc2c1 [Compound 15h] | True |
| COc1ccc2c(Nc3ccc(/C(C)=N/OCCN4CCCCC4)cc3)c3ccoc3nc2c1 [Compound 15f] | True |
| C/C(=N\OCCN)c1ccc(Nc2c3ccccc3nc3occ(Cl)c23)cc1 [Compound 14a] | False |
| COc1ccc2c(Nc3ccc(/C(C)=N/OCCCN(C)C)cc3)c3ccoc3nc2c1 [Compound 15d] | False |
| COc1ccc2c(Nc3ccc(/C(C)=N/OCCN4CCCC4)cc3)c3ccoc3nc2c1 [Compound 15e] | False |
| C/C(=N\OCCCCN1CCOCC1)c1ccc(Nc2c3ccccc3nc3occ(Cl)c23)cc1 [Compound 14h] | True |
| C/C(=N\O)c1ccc(Nc2c3ccccc3nc3occc23)cc1 [Compound 2, reference compound] | False |
| C/C(=N\OCCCN)c1ccc(Nc2c3ccccc3nc3occc23)cc1 [Compound 13c] | False |
| COc1ccc2c(Nc3ccc(/C(C)=N/OCCN)cc3)c3c(Cl)coc3nc2c1 [Compound 16a] | False |
| C/C(=N\OCCCCN1CCOCC1)c1ccc(Nc2c3ccccc3nc3occc23)cc1 [Compound 13h] | True |
| C/C(=N\OCCCN(C)C)c1ccc(Nc2c3ccccc3nc3occc23)cc1 [Compound 13d] | True |

###

Test system: MCF-7 (breast cancer cell)
assay: MTT antiproliferative assay (cell growth %, GI50), MCF-7
Assay type: cell-based
measurement.setup: Homo sapiens, MCF7; 4 mg/ml, 48 hours, MTT
measured.metric: activity at 4000 µg/mL (%)

| molecule | result.value |
| --- | --- |
| C/C(=N\OCCN1CCCC1)c1ccc(Nc2c3ccccc3nc3occ(Cl)c23)cc1 [Compound 14e] | 86 |
| C/C(=N\OCCN(C)C)c1ccc(Nc2c3ccccc3nc3occc23)cc1 [Compound 13b] | 59 |
| C/C(=N\OCCN1CCOCC1)c1ccc(Nc2c3ccccc3nc3occ(Cl)c23)cc1 [Compound 14g] | 112 |
| COc1ccc2c(Nc3ccc(/C(C)=N/OCCCN)cc3)c3ccoc3nc2c1 [Compound 15c] | 100 |

###

assay: Determination of solubility in water
Type: physicochemical
measurement.setup: 25±0.1° C., stirred overnight, UV-VIS
Protocol: Determination of solubility in water was conducted substantially according to the method as described in Vougogiannopoulou, K. et al. (2008), J. Med. Chem., 51:6421-6431. […] Absorbance of the sample of the respective test compound was measured at 315-420 nm using a UV-VIS spectrophotometer (JASCO UV-Visible V570). For each test compound, a standard curve was generated by plotting concentrations of standard solutions and the corresponding absorbances. […]
Classify as follows. Reported Solubility in water greater than or equal to 40 µg/mL: 1. Reported Solubility in water below: -1.

| molecule | group |
| --- | --- |
| COc1ccc2c(Nc3ccc(/C(C)=N/OCCN)cc3)c3ccoc3nc2c1 [Compound 15a] | -1 |
| COc1ccc2c(Nc3ccc(/C(C)=N/OCCN)cc3)c3c(Cl)coc3nc2c1 [Compound 16a] | -1 |
| C/C(=N\OCCCN)c1ccc(Nc2c3ccccc3nc3occc23)cc1 [Compound 13c] | 1 |
| C/C(=N\OCCN)c1ccc(Nc2c3ccccc3nc3occc23)cc1.Cl [Hydrochloride salt of 13a] | 1 |
| C/C(=N\OCCN)c1ccc(Nc2c3ccccc3nc3occ(Cl)c23)cc1 [Compound 14a] | -1 |
| C/C(=N\OCCCN)c1ccc(Nc2c3ccccc3nc3occ(Cl)c23)cc1 [Compound 14c] | -1 |
| C/C(=N\OCCN)c1ccc(Nc2c3ccccc3nc3occc23)cc1 [Compound 13a] | 1 |

Source of measurements: patent US8952033B2
